B1: Myocardin-related transcription factor A, residues 341 to 383; numbered along this chain, Q969V6 (parent)
chain: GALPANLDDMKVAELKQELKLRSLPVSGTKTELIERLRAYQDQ

Variants of: B1
Assay: abundance fitness (aPCA) (normalised: wild type 0, dead -1); higher = more abundant; growth selection in yeast, the domain comes from the species named
Details: Homo sapiens
Decide by abundance fitness: equal to or exceeding -0.2 means yes, less means no.

variant spec | label
A39V | yes
Q41I | yes
S23A | yes

Field: next variant
# check: abundance fitness of V26N is greater than or equal to -0.2
no

Ref: the Human Domainome abundance scans (Beltran et al. 2025)
